- Test Description: Half-life in Beagle dog at 1 mg/kg, iv
- Format: ADME, organism-based, Canis lupus familiaris
- Test Conditions: in vivo
Measured Property: half-life

[[record]]
smiles_record = "CC(C)(Oc1ccc(-c2cnc(N)c(-c3ccc(Cl)cc3)c2)cc1)C(=O)O"
measured_property = "half-life"
reported_result = "2 h"

